target-of-assay: Somatostatin receptor type 5 (Homo sapiens)
Sequence (P35346 whole entry): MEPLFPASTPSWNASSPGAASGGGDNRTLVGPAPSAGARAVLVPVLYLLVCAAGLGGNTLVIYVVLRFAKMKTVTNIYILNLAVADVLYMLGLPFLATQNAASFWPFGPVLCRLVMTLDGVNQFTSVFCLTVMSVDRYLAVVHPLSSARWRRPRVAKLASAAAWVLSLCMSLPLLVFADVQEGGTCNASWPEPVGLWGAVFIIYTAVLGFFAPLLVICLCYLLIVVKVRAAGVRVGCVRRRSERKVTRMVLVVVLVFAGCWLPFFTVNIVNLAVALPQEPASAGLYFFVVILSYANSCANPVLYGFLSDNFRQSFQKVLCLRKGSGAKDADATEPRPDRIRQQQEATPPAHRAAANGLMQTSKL
test-method-notes: Displacement of [125I]-[Leu8, DTrp22, Tyr25]-somatostatin-28 from human recombinant sst5 receptor expressed in chinese hamster CCL39 cells
assay-metric: pIC50
Value format note: pIC50 is -log10 of concentration (mol/L); just state the number.

// below: answered compounds
NCCCC[C@@H](C(=O)NCCc1ccccc1)N1Cc2[nH]c3ccccc3c2C[C@@H](NC(=O)Cc2ccccc2)C1=O; 9.22
CC(=O)N[C@@H]1Cc2c([nH]c3ccccc23)CN([C@@H](CCCCN)C(=O)NCc2ccccc2)C1=O; 8.30
NCCCC[C@@H](C(=O)NCc1ccccc1)N1Cc2[nH]c3ccccc3c2C[C@@H](NC(=O)N2CCC3(CCc4ccccc43)CC2)C1=O; 8.54
C[C@H](NC(=O)[C@H](CCCCN)N1Cc2[nH]c3ccccc3c2C[C@@H](NC(=O)Cc2ccccc2)C1=O)c1ccccc1; 8.49
NCCCC[C@@H](C(=O)NCc1cccc2ccccc12)N1Cc2[nH]c3ccccc3c2C[C@@H](NC(=O)Cc2ccccc2)C1=O; 8.46

Problem: Given the compound `C[C@@H](O)[C@@H](CO)NC(=O)[C@@H]1C/C=C/C[C@H](NC(=O)[C@H](N)Cc2ccccc2)C(=O)N[C@@H](Cc2ccccc2)C(=O)N[C@H](Cc2c[nH]c3ccccc23)C(=O)N[C@@H](CCCCN)C(=O)N[C@@H](Cc2ccc(OCc3ccccc3)cc2)C(=O)N1` , what is its reported pIC50?
Result: 7.92

Problem: Could you do the same for `C[C@@H](NC(=O)[C@H](CCCCN)N1Cc2[nH]c3ccccc3c2C[C@@H](NC(=O)Cc2ccccc2)C1=O)c1ccccc1` , please?
Result: 7.30

Problem: Further, for `NCCCC[C@@H](C(=O)NCc1ccccc1)N1Cc2[nH]c3ccccc3c2C[C@@H](NC(=O)C(c2ccccc2)c2ccccc2)C1=O` ?
Result: 8.06

Sourced from ChEMBL document CHEMBL1139341
